The measured values listed here are drawn from paper PMC9653173.

# protocol.notes: Trotabresib plasma pharmacokinetics, CC-90010-GBM-002
# Format: in vivo, human
# measurement.setup: human, plasma, oral, adjuvant trotabresib 30 mg + TMZ, Day 1; read-out: Cmax, GM (GCV%)

item.smiles	Cmax [ng/mL]
Cn1cc(-c2cc(S(C)(=O)=O)ccc2OCC2CC2)c2ccccc2c1=O	306

---

# protocol.notes: Trotabresib plasma pharmacokinetics, CC-90010-GBM-002
# Assay type: in vivo, human
# measurement.setup: human, plasma, oral, adjuvant trotabresib 15 mg + TMZ, Day 4; read-out: tmax, median (range)

item.smiles	Tmax
Cn1cc(-c2cc(S(C)(=O)=O)ccc2OCC2CC2)c2ccccc2c1=O	1.5 h

---

# protocol.notes: Trotabresib plasma pharmacokinetics, CC-90010-GBM-002
# Type: in vivo, human
# measurement.setup: human, plasma, oral, all cohorts; standard deviation ± 27.2; read-out: mean t½ (converted)
# Procedure: The sample size was not based on strict statistical power calculations. Safety, efficacy, and pharmacodynamic analyses were summarized using descriptive statistics. Plasma pharmacokinetic parameters were calculated by the noncompartmental analysis method from plasma concentration–time profiles.
property.label: half-life (h)

compound	property.label	reported.value
Cn1cc(-c2cc(S(C)(=O)=O)ccc2OCC2CC2)c2ccccc2c1=O [Trotabresib]	half-life	74.2

---

# protocol.notes: Trotabresib plasma pharmacokinetics, CC-90010-GBM-002
# Type: in vivo, human
# measurement.setup: human, plasma, oral, adjuvant trotabresib 45 mg + TMZ, Day 1; read-out: Cmax, GM (GCV%)

item.smiles	Cmax [ng/mL]
Cn1cc(-c2cc(S(C)(=O)=O)ccc2OCC2CC2)c2ccccc2c1=O	522

---

# protocol.notes: Trotabresib plasma pharmacokinetics, CC-90010-GBM-002
# Type: in vivo, human
# measurement.setup: human, plasma, oral, concomitant trotabresib 15 mg + TMZ + RT, Day 4; read-out: Cmax, GM (GCV%)
# Description: The sample size was not based on strict statistical power calculations. Safety, efficacy, and pharmacodynamic analyses were summarized using descriptive statistics. Plasma pharmacokinetic parameters were calculated by the noncompartmental analysis method from plasma concentration–time profiles.

compound	units.symbol	Cmax
Cn1cc(-c2cc(S(C)(=O)=O)ccc2OCC2CC2)c2ccccc2c1=O [Trotabresib]	ng/mL	383

---

# protocol.notes: Trotabresib plasma pharmacokinetics, CC-90010-GBM-002
# Type: in vivo, human
# measurement.setup: human, plasma, oral, concomitant trotabresib 30 mg + TMZ + RT, Day 4; read-out: Cmax, GM (GCV%)

item.smiles	Cmax (ng/mL)
Cn1cc(-c2cc(S(C)(=O)=O)ccc2OCC2CC2)c2ccccc2c1=O	874

---

# protocol.notes: Trotabresib plasma pharmacokinetics, CC-90010-GBM-002
# Type: in vivo, human
# measurement.setup: human, plasma, oral, adjuvant trotabresib 30 mg + TMZ, Day 4; read-out: tmax, median (range)

item.smiles	Tmax / h
Cn1cc(-c2cc(S(C)(=O)=O)ccc2OCC2CC2)c2ccccc2c1=O	1.5

---

# protocol.notes: Trotabresib plasma pharmacokinetics, CC-90010-GBM-002
# Assay type: in vivo, human
# measurement.setup: human, plasma, oral, concomitant trotabresib 30 mg + TMZ + RT, Day 1; read-out: Cmax, GM (GCV%)
property.label: Cmax (ng/mL)

item.smiles	property.label	reported.value
Cn1cc(-c2cc(S(C)(=O)=O)ccc2OCC2CC2)c2ccccc2c1=O	Cmax	309

---

# protocol.notes: Trotabresib plasma pharmacokinetics, CC-90010-GBM-002
# Assay type: in vivo, human
# measurement.setup: human, plasma, oral, adjuvant trotabresib 30 mg + TMZ, Day 1; read-out: tmax, median (range)

compound	Tmax, h
Cn1cc(-c2cc(S(C)(=O)=O)ccc2OCC2CC2)c2ccccc2c1=O [Trotabresib]	2

---

# protocol.notes: Trotabresib plasma pharmacokinetics, CC-90010-GBM-002
# Type: in vivo, human
# measurement.setup: human, plasma, oral, adjuvant trotabresib 45 mg + TMZ, Day 4; read-out: Cmax, GM (GCV%)
# Protocol: The sample size was not based on strict statistical power calculations. Safety, efficacy, and pharmacodynamic analyses were summarized using descriptive statistics. Plasma pharmacokinetic parameters were calculated by the noncompartmental analysis method from plasma concentration–time profiles.
property.label: Cmax (ng/mL)

compound	property.label	units.symbol	reported.value
Cn1cc(-c2cc(S(C)(=O)=O)ccc2OCC2CC2)c2ccccc2c1=O [Trotabresib]	Cmax	ng/mL	1160

---

# protocol.notes: Trotabresib plasma pharmacokinetics, CC-90010-GBM-002
# Assay type: in vivo, human
# measurement.setup: human, plasma, oral, adjuvant trotabresib 15 mg + TMZ, Day 1; read-out: Cmax, GM (GCV%)

compound	Cmax / ng/mL
Cn1cc(-c2cc(S(C)(=O)=O)ccc2OCC2CC2)c2ccccc2c1=O [Trotabresib]	201

---

# protocol.notes: Trotabresib plasma pharmacokinetics, CC-90010-GBM-002
# Format: in vivo, human
# measurement.setup: human, plasma, oral, adjuvant trotabresib 30 mg + TMZ, Day 4; read-out: Cmax, GM (GCV%)

item.smiles	Cmax / ng/mL
Cn1cc(-c2cc(S(C)(=O)=O)ccc2OCC2CC2)c2ccccc2c1=O	822

---

# protocol.notes: Trotabresib plasma pharmacokinetics, CC-90010-GBM-002
# Type: in vivo, human
# measurement.setup: human, plasma, oral, adjuvant trotabresib 15 mg + TMZ, Day 1; read-out: tmax, median (range)

item.smiles	Tmax / h
Cn1cc(-c2cc(S(C)(=O)=O)ccc2OCC2CC2)c2ccccc2c1=O	1

---

# protocol.notes: Trotabresib plasma pharmacokinetics, CC-90010-GBM-002
# Assay type: in vivo, human
# measurement.setup: human, plasma, oral, day 4, all cohorts; read-out: tmax
property.label: Tmax

molecule	property.label	reported.value
Cn1cc(-c2cc(S(C)(=O)=O)ccc2OCC2CC2)c2ccccc2c1=O [Trotabresib]	Tmax	0.5 to 4 h

---

# protocol.notes: Trotabresib plasma pharmacokinetics, CC-90010-GBM-002
# Assay type: in vivo, human
# measurement.setup: human, plasma, oral, adjuvant trotabresib 15 mg + TMZ, Day 4; read-out: Cmax, GM (GCV%)

item.smiles	Cmax [ng/mL]
Cn1cc(-c2cc(S(C)(=O)=O)ccc2OCC2CC2)c2ccccc2c1=O	433

---

# protocol.notes: Trotabresib plasma pharmacokinetics, CC-90010-GBM-002
# Assay type: in vivo, human
# measurement.setup: human, plasma, oral, concomitant trotabresib 15 mg + TMZ + RT, Day 4; read-out: tmax, median (range)
# Protocol: The sample size was not based on strict statistical power calculations. Safety, efficacy, and pharmacodynamic analyses were summarized using descriptive statistics. Plasma pharmacokinetic parameters were calculated by the noncompartmental analysis method from plasma concentration–time profiles.

item.smiles	units.symbol	Tmax
Cn1cc(-c2cc(S(C)(=O)=O)ccc2OCC2CC2)c2ccccc2c1=O	h	1.3
